Target system: ROCK1 (human)
Method notes: radiometric filter-binding kinase assay, Kinase HotSpot
Reported conditions: compound 0.5 µM; ATP 10 µM
Reported residual activity values are given for each entry in this list.
Observed property: residual activity (%)

{"Compound structure string": "N#CCCc1ccc2c(c1)-c1[nH]c3ccc([N+](=O)[O-])cc3c1CC(=O)N2", "Observed property": "residual activity", "Value reported": 38.9}
{"Compound structure string": "CCCCc1c(-c2ccc(O)cc2)[nH]c2nccnc12", "Observed property": "residual activity", "Value reported": 98.6}
{"Compound structure string": "O=C1NC(=O)c2c1c1c3ccccc3[nH]c1c1[nH]c3cc(Br)ccc3c21", "Observed property": "residual activity", "Value reported": 93.9}
{"Compound structure string": "O=S(=O)(NCCNC/C=C/c1ccc(Br)cc1)c1cccc2cnccc12", "Observed property": "residual activity", "Value reported": 37.8}
{"Compound structure string": "COc1cc2c(cc1OC)-c1[nH]nc(Nc3cccc(F)c3)c1C2", "Observed property": "residual activity", "Value reported": 87.5}
{"Compound structure string": "O=c1c2ccccc2[nH]c(=S)n1CCN1CCC(=C(c2ccc(F)cc2)c2ccc(F)cc2)CC1", "Observed property": "residual activity", "Value reported": 97.2}
{"Compound structure string": "COc1cc2c(Nc3ccc(Br)cc3F)ncnc2cc1OCC1CCN(C)CC1", "Observed property": "residual activity", "Value reported": 99.4}
{"Compound structure string": "c1ccc(-c2cnc(Nc3ccc(OCCN4CCCC4)cc3)s2)cc1", "Observed property": "residual activity", "Value reported": 102}
{"Compound structure string": "O=c1[nH]c2ccccc2n1C1CCN(Cc2ccc(-c3nc4cc5[nH]cnc5cc4nc3-c3ccccc3)cc2)CC1", "Observed property": "residual activity", "Value reported": 101}
{"Compound structure string": "Cc1cc(Nc2nc(-c3ccccc3)nc3ccccc23)n[nH]1", "Observed property": "residual activity", "Value reported": 98.8}
